The measured values listed here are drawn from patent US8183234B2.

Collected melting point values appear next to each entry.
Measured quantity: melting point

{"Molecule": "COCC(=O)N(CCN1CCCC1)c1cc(Cl)c2c(c1)CS(=O)(=O)c1cc(C(=O)NC(=N)N)cc(C)c1O2.CS(=O)(=O)O.CS(=O)(=O)O [Example 77]", "Observed result": "204 to 206 °C"}
{"Molecule": "CS(=O)(=O)O.CS(=O)(=O)O.Cc1cc(C(=O)NC(=N)N)cc2c1Oc1c(Cl)cc(NCCNCCN3CCOCC3)cc1CS2(=O)=O [Example 79]", "Observed result": "255 to 256 °C"}
{"Molecule": "CS(=O)(=O)O.CS(=O)(=O)O.Cc1cc(C(=O)NC(=N)N)cc2c1Oc1c(N)cccc1CS2(=O)=O [Example 159]", "Observed result": "255 to 257 °C"}
